B1: glmS ribozyme (parent)
chain: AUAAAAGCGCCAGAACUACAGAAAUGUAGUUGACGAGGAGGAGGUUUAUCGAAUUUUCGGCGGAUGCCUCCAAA

Variants of: B1
Assay: self-cleavage kobs at 160 uM GlcN6P; higher = faster cleavage; RNA array
Cond: with glucosamine-6-phosphate
This sample holds only a part of the variants without activity.
self-cleavage kobs at 160 uM GlcN6P values by entry
Write the value in s⁻¹ as a bare number.

Example variants with recorded self-cleavage kobs at 160 uM GlcN6P:
Mutation list: C16U G40A U46C
Readout: self-cleavage kobs at 160 uM GlcN6P
Reported value: 0.000137

Mutation list: U56C G66A
Readout: self-cleavage kobs at 160 uM GlcN6P
Reported value: 8.16e-05

Mutation list: A12U G66U
Readout: self-cleavage kobs at 160 uM GlcN6P
Reported value: 0.000589

In: Which self-cleavage kobs at 160 uM GlcN6P value belongs to A12U A14U U45A ?
Out: 0.000413

In: Returns the measured self-cleavage kobs at 160 uM GlcN6P for the input variant. Input: U47G U69A
Out: 7.68e-05

In: Please report the recorded self-cleavage kobs at 160 uM GlcN6P for A12U A53U .
Out: 0.00421

In: Quick one: self-cleavage kobs at 160 uM GlcN6P of A15C U65G ?
Out: 4.69e-05

In: // returns reported self-cleavage kobs at 160 uM GlcN6P for input U54C C67G
Out: 0.000179

In: // query self-cleavage kobs at 160 uM GlcN6P value for entry U45A U54G
Out: 0.00383
